System: HS 578T breast
Assay Info: NCI tumour cell line growth inhibition, 48 h; in the data active = GI50 below about 0.43 µM; inactive = the rest
Choose the fitting class; nothing outside true (active), false (inactive) is accepted.

Worked set:
Compound	Target Entity	Group
C=C1CC2(OC1=O)C(=O)Nc1ccccc12 (centres undefined)	HS 578T breast	false
CCCCCCCc1cc2c3c(nc4ccccc42)C(=O)c2cccnc2-c3n1	HS 578T breast	false

Qu. Short answer needed: outcome of this test for CC(C)=CC1=C2C3=C(C(=O)C4(O)Oc5c(C)c6c7c(c5OC24C)[C@@H](C)CC[C@@H]7[C@@H](C)C[C@H]6C=C(C)C)C(C)CCC3C(C)C1 (some centres undefined) ?
Ans. false

Qu. Short answer needed: outcome of this test for Cc1cnc(C(=O)Nc2nc3ccc(S(=O)(=O)Nc4ccc(C5(C(F)(F)F)CC5)cc4)cc3[nH]2)cn1 ?
Ans. true

Qu. Short answer needed: outcome of this test for C=C1C(=O)O[C@H]2[C@H]1CC/C(Cn1cc(-c3ccccc3C(F)(F)F)nn1)=C\CC[C@@]1(C)O[C@@H]21 ?
Ans. false

Qu. Short answer needed: outcome of this test for Cc1ncc(C(=O)Nc2ccc(CN3CCN(C)CC3)c(C(F)(F)F)c2)cc1C#Cc1cnc(N)cc1C#N ?
Ans. true

Qu. Short answer needed: outcome of this test for OCC#Cc1ccccc1C#CCCCCCC#Cc1ccccc1C#CCO ?
Ans. false

Qu. Short answer needed: outcome of this test for COc1cc2c(cc1OCCCC(=O)Nc1ccc3ccc4cccc5ccc1c3c45)N=C[C@@H]1CCCN1C2=O ?
Ans. true

Qu. Short answer needed: outcome of this test for Cc1cc(N2CCOCC2)cc2[nH]c(-c3c(NC[C@@H](O)c4cccc(Cl)c4)cc[nH]c3=O)nc12 ?
Ans. false

Qu. Short answer needed: outcome of this test for Cc1ccc(Cl)cc1NC(=O)c1sc2nc3c(cc2c1N)C(=O)CCC3 ?
Ans. false

Qu. Short answer needed: outcome of this test for S=P(N1CC1)(N1CC1)N1CC1 ?
Ans. false

Qu. Short answer needed: outcome of this test for COc1cc(-c2nc(SCCC(C)C)nc(Nc3ccc(S(N)(=O)=O)cc3)c2C#N)cc(OC)c1OC ?
Ans. false

Qu. Short answer needed: outcome of this test for CN(C)CCCNC(=O)c1cc(NC(=O)c2cc(NC(=O)CCNS(=O)(=O)c3ccc4c(c3)C(=O)c3ccccc3C4=O)cn2C)cn1C ?
Ans. false

Qu. Short answer needed: outcome of this test for CCN(CC)c1ccc(C(=O)c2ccc(N(CC)CC)cc2)cc1 ?
Ans. true

* * *

Provide the reported TGI of each item.
Test system: SK-MEL-28 melanoma
Assay Info: NCI tumour cell line growth inhibition, 48 h
Where a SMILES comes first, the peptide text is derived from it. [ ]: non-standard residue; d: D form. The star is where a group is joined. Phe(4-NO2) = N[CH](Cc1ccc([N+](=O)[O-])cc1)C(=O)O; Boc = CC(C)(C)OC(=O)*

Guide cases for TGI, answers given:
Compound	Experimental Result
C=C1C(=O)O[C@H]2[C@H]1CC/C(Cn1cc(-c3ccccc3C(F)(F)F)nn1)=C\CC[C@@]1(C)O[C@@H]21	3.47 µM
CN1C(=O)C2C(C1=O)C1(O)c3ccccc3C2(N)c2ccccc21 (stereo unspecified)	> 100 µM
CC(C)(c1ccccc1)c1ccc(OC#N)cc1	> 100 µM
COc1cc2c(cc1OC)C13CCN4CC5CCOC6CC(=O)N2C1C6C5CC43 (stereo unspecified)	> 100 µM
Cc1ccc(Cl)cc1NC(=O)c1sc2nc3c(cc2c1N)C(=O)CCC3	> 100 µM
O=C(O)CCc1nn2c(nc1=O)sc1ccc3ccccc3c12	> 100 µM
CC(C)OP(=O)(NC(=S)c1ccccc1)OC(C)C	> 100 µM
COc1cc(CNNC(N)=S)cc(OC)c1OC	> 100 µM

Return reported TGI values for all items listed beneath this line.
1. COI1NC(=O)c2ccccc21
2. N#Cc1cccc(/C=N/N=C(\N)NO)c1
3. NC(N)=Nc1ccc(CC(N)C(=O)O)cc1 (stereo unspecified)
4. O=C(Nc1ccc([N+](=O)[O-])cc1Cl)c1cccc([N+](=O)[O-])c1O
5. CCOC(=O)c1ccc(N=c2sc3ccccc3nc2Nc2ccc(C(=O)OCC)cc2)cc1
6. CN(Cc1cc(C(C)(C)C)cc(Br)c1O)Cc1cc(C(C)(C)C)cc(Br)c1O
7. CC(=O)O[C@H]1[C@H](OC(=O)CC(C)(O)CC(=O)O)C[C@]2(C)C3=C(CCC2C1(C)C)[C@]1(C)CC[C@H]([C@H]2CC[C@H](C(C)(C)O)OC2O)[C@@]1(C)[C@@H](O)C3 (stereo partly specified)
8. N#C/C(N)=C(\C#N)NC(=O)C(=O)N/C(C#N)=C(\N)C#N

Ans.
1. > 100 µM
2. > 100 µM
3. > 12.5 µM
4. 19.4 µM
5. > 100 µM
6. 17.4 µM
7. 31.5 µM
8. > 100 µM

Return reported TGI values for all items listed beneath this line.
1. CNC(=O)CCC(NC(=O)OC(C)(C)C)C(=O)NC(Cc1ccc([N+](=O)[O-])cc1)C(=O)NCC(=O)NC (stereo unspecified) (Boc-Glu(NHMe)-[Phe(4-NO2)]-Gly-NHMe; configuration not given here)
2. NC(=S)N/N=C\c1nccc2ccccc12
3. Cc1cc(Cl)ccc1NC(=O)CC1SC(=Nc2ccccc2Cl)NC1=O (stereo unspecified)
4. O=c1c(O)c(-c2cc(O)c(O)c(O)c2)oc2cc(O)cc(O)c12
5. CCOC(=O)c1ccc(NCC#CCN2CCCCC2)cc1

Ans.
1. > 100 µM
2. 0.951 µM
3. > 100 µM
4. > 100 µM
5. > 100 µM

* * *

Provide the reported TGI of each item.
Tested on: OVCAR-4 ovarian
Assay Info: NCI tumour cell line growth inhibition, 48 h

Return reported TGI values for all items listed beneath this line.
1. CCN(CC)c1ccc(C(=O)c2ccc(N(CC)CC)cc2)cc1
2. COc1ccc(SCc2cc(OCc3ccccc3)c(OCc3ccccc3)c(OCc3ccccc3)c2)cc1
3. Cc1cc(=O)oc2c(CNC(Cc3ccccc3)C(=O)O)c(O)ccc12 (stereo not drawn)

Ans.
1. > 100 µM
2. 3.25 µM
3. > 100 µM

Return reported TGI values for all items listed beneath this line.
1. CC12CCC(Br)C(C)(C)C1CC=C1C(=O)OCC1O2 (stereo not drawn)
2. Cc1cccc(NC(=O)c2cccc([N+](=O)[O-])c2O)c1C
3. COc1cccc(NC(=O)/C(Cc2nc3ccccc3nc2C)=N/NC(=O)C[n+]2ccccc2)c1
4. CN(C)c1nc(Cl)c2c(-c3ccccc3)c(-c3ccccc3)oc2n1
5. CCCCCCCCCCCCCCCCCCN(C)CC(COP(=O)([O-])OCC[N+](C)(C)C)OC (stereo not drawn)

Ans.
1. 42.3 µM
2. > 100 µM
3. > 100 µM
4. > 100 µM
5. 29.6 µM

* * *

Test system: COLO 205 colon
Assay Info: NCI tumour cell line growth inhibition, 48 h
Provide the reported TGI of each item.
Numbers only, in µM.

                                   compound  readout_type  experimental_result
0  CC(C)CC(NC(=O)OC(C)(C)C)C(=O)Nc1ccc(Nc2nc(F)nc(-c3c4ccccc4cn3C)n2)cc1 (stereo not given)           TGI                 49.3

The compound CC(C)(C)OC(=O)N1C(c2cccnc2)=CC[C@H]2C3CC=C(c4cccnc4)[C@@]3(C)CC[C@@H]21 (stereo not given in full) showed TGI equal to 3.19

* * *

Provide the reported GI50 of each item.
Tested on: SR leukemia
Assay Info: NCI tumour cell line growth inhibition, 48 h

Guide cases for GI50, answers given:
Molecule Smiles	Target Entity	GI50
CN(C)CCCNC(=O)c1cc(NC(=O)c2cc(NC(=O)CCNS(=O)(=O)c3ccc4c(c3)C(=O)c3ccccc3C4=O)cn2C)cn1C	SR leukemia	85900 nM
Cc1cnc(C(=O)Nc2nc3ccc(S(=O)(=O)Nc4ccc(C5(C(F)(F)F)CC5)cc4)cc3[nH]2)cn1	SR leukemia	77.7 nM
O=C(OC[C@H]1O[C@H](OC(=O)c2cc(O)c(O)c(OC(=O)c3cc(O)c(O)c(O)c3)c2)[C@H](OC(=O)c2cc(O)c(O)c(OC(=O)c3cc(O)c(O)c(O)c3)c2)[C@@H](OC(=O)c2cc(O)c(O)c(OC(=O)c3cc(O)c(O)c(O)c3)c2)[C@@H]1OC(=O)c1cc(O)c(O)c(OC(=O)c2cc(O)c(O)c(O)c2)c1)c1cc(O)c(O)c(OC(=O)c2cc(O)c(O)c(O)c2)c1	SR leukemia	1860 nM

The molecule N#C/C(=C\c1ccc(Br)cc1)n1nnc2ccc(F)cc21 showed GI50 equal to 348 nM
